test system: Vibrio parahaemolyticus; experiment: Antibacterial activity against Vibrio parahaemolyticus by broth microdilution method; format: functional
recorded_metric: MIC90 (mg/L)
Express your answer in mg/L, writing the number without its unit.

Q. Suppose we examine the molecule CC1Sc2c(C(=O)O)c(=O)c3cc(F)c(N4CCNCC4)cc3n21 (stereo unspecified) [ULIFLOXACIN] ; what MIC90 value has been reported?
A. 0.03

Q. Thanks! And CC1(C)S[C@@H]2[C@H](NC(=O)[C@H](N)c3ccccc3)C(=O)N2[C@H]1C(=O)O [AMPICILLIN] ?
A. 8

Q. Thanks! And CO[C@H]1/C=C/O[C@@]2(C)Oc3c(C)c(O)c4c(O)c(c5c(nc6cc(C)ccn65)c4c3C2=O)NC(=O)/C(C)=C\C=C\[C@H](C)[C@H](O)[C@@H](C)[C@@H](O)[C@@H](C)[C@H](OC(C)=O)[C@@H]1C [RIFAXIMIN] ?
A. 1

Q. Thanks! And O=C(O)c1cn(C2CC2)c2cc(N3CCNCC3)c(F)cc2c1=O [CIPROFLOXACIN] ?
A. 0.06
